Where do these numbers come from? They come from patent US20250276077A1.

target_or_test_system: Human EphA2 (ephrin receptor A2) on cells (human, UniProt P29317 25-976)
Sequence (P29317 25-976): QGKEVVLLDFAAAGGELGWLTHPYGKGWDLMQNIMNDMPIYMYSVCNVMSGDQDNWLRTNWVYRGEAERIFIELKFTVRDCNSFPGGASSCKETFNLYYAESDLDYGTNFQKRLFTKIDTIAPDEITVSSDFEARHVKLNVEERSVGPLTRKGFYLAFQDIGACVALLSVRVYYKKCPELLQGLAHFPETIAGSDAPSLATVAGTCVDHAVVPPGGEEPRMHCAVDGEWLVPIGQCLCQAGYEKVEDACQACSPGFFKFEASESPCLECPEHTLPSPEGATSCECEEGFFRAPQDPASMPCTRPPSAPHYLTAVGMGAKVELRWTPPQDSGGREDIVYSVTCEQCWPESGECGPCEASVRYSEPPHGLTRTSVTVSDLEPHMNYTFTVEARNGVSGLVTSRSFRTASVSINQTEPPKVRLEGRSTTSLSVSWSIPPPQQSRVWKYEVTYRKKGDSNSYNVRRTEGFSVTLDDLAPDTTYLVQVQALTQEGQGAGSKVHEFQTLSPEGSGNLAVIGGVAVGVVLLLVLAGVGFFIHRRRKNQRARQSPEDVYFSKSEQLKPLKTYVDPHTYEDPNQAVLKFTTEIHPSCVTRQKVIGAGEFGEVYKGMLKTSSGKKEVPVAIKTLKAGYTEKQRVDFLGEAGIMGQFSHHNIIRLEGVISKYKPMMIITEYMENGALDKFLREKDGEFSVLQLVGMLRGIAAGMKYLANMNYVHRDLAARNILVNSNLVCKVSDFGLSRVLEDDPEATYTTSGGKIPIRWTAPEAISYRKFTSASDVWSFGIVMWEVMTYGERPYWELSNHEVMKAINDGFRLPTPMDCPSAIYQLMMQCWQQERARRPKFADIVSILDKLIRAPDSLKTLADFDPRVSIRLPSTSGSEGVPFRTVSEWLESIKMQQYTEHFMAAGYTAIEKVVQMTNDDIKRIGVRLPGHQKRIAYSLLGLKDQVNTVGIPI
test_details: cell-based or functional assay
endpoint: ADCC - EC50 (nM), Trial 2, A549
Number only, in nM; omit the unit.

For orientation, consider the following solved cases.
• AB-010363 (antibody, V domains shown) VH: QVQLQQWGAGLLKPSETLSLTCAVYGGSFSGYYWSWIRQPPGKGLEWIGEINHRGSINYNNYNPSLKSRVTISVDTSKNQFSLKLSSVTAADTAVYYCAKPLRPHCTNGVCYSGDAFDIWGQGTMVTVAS VL: SYVLTQPPSVSVAPGQTARITCGGNNIGSKNVHWYQQKPGQAPVLVVYDDSDRPSGIPERFSGSNSGNTATLTISRVEAGDEADYYCQVWDSSSDHVVFGGGTKLTVL = 4.2
• AB-010361 (antibody, mouse IgG2a, V domains shown) VH: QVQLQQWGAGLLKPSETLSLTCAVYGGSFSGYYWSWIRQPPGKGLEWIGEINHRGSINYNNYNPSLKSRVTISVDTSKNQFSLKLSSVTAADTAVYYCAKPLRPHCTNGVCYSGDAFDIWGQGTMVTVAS VL: SYVLTQPPSVSVAPGQTARITCGGNNIGSKNVHWYQQKPGQAPVLVVYDDSDRPSGIPEQFSGSNSGNTATLTISRVEAGDEADYYCQVWDSSSDHVVFGGGTKLTVL = 2.2
• AB-010685 (antibody, V domains shown) VH: QVQLQQWGAGLLKPSETLSLTCAVYGGSFSGYYWSWIRQPPGKGLEWIGEINHRGSINYNNYNPSLKSRVTISVDTSKNQFSLKLSSVTAADTAVYYCAKPLRPHCINGVCYSGDAFDIWGQGTMVTVAS VL: SYVLTQPPSVSVAPGQTARITCGGNNIGYKNVHWYQQKPGQAPVLVVYDDSDRPSGIPEQFSGSNSGNTATLTISRVEAGDEADYYCQVWDHSSDHVVFGGGTKLTVL = 0.0057
• AB-010688 (antibody, V domains shown) VH: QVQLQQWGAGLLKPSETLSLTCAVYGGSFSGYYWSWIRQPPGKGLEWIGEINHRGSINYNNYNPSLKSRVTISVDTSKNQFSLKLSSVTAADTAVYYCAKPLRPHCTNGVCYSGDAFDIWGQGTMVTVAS VL: SYVLTQPPSVSVAPGQTARITCGGNNIGYKNVHWYQQKPGQAPVLVVYDDSDRPSGIPEQFSGSNSGNTATLTISRVEAGDEADYYCQVWDSESDHVVFGGGTKLTVL = 0.032

Request: Would you mind telling me what ADCC - EC50 (nM), Trial 2, A549 value was observed for AB-010671 (antibody, V domains shown) VH: QVQLQQWGAGLLKPSETLSLTCAVYGGSFSDYYWSWIRQPPGKGLEWIGEINHRGSINYNNYNPSLKSRVTISVDTSKNQFSLKLSSVTAADTAVYYCAKPLRPHCINGVCYSGDAFDIWGQGTMVTVAS VL: SYVLTQPPSVSVAPGQTARITCGGNNIGYKNVHWYQQKPGQAPVLVVYDDSDRPSGIPEQFSGSNSGNTATLTISRVEAGDEADYYCQVWDHSSDHVVFGGGTKLTVL ?
Result: 0.0064
